# tested.on: Carnitine O-palmitoyltransferase 1, muscle isoform (Rattus norvegicus, UniProt Q63704)
# Sequence (Q63704 whole entry): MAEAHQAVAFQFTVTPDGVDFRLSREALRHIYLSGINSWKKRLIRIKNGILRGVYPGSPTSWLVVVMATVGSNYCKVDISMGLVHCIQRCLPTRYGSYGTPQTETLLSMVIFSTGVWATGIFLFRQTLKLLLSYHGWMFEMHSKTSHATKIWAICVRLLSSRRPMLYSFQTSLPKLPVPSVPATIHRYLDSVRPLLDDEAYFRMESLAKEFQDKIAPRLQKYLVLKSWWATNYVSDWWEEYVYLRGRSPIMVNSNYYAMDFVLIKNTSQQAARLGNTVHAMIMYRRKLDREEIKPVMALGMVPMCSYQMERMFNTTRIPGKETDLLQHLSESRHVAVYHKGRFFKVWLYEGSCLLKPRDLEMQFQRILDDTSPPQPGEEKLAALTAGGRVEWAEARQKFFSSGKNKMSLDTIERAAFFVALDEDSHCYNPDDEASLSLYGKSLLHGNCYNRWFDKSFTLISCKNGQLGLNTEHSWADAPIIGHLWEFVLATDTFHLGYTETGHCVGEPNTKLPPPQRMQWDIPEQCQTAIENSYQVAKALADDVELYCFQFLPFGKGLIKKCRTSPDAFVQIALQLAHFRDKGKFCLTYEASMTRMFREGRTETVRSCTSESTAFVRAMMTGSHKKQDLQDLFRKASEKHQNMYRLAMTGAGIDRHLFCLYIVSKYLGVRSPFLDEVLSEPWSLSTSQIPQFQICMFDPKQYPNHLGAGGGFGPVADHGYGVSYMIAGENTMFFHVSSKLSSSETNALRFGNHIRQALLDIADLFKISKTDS
# assay.overview: Compound was evaluated for its ability to inhibit carnitine palmitoyltransferase I activity in intact mitochondria from rat heart
reported.property: pKi
# pKi: negative log10 of molar concentration; output just the value

Task: Which pKi value belongs to CCCCCCCCCCCCCCC[C@@]1(O)C[N+](C)(C)C[C@@H](CC(=O)[O-])O1 ?
Result: 5.55
